Entry source: the supplement of paper PMC9233669

# Test system: biotinyl-Leu-oxazolone
# method: self-aminoacylation, catalytic enhancement (BLO) (fold over background); higher = more active; k-Seq, kA / k0A0; sequences stand for … in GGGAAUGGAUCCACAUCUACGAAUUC…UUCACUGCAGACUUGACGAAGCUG
Fewer inactive variants are shown than the library holds.
# Lookup of reported self-aminoacylation keyed by entry
Give a plain numeric answer without units written out.

residues | reported
AUUAACCUGGUCAUGGAGUGA [Fam2.1 aminoacylation ribozyme variant] | 3.54

Report self-aminoacylation for AGUCCCCUAGGUCAUCGGGUG [Fam2.2 aminoacylation ribozyme variant] please. 16.9

Report self-aminoacylation for AUUACCCUGGUCAGCCAGUGA [Fam2.1 aminoacylation ribozyme variant] please. 10.6

Report self-aminoacylation for UUACUUCAAACAAUCGAUCUG [Fam1A.1 aminoacylation ribozyme variant] please. 0.824

Report self-aminoacylation for CUACUUCAUACAAUCGUUCUG [Fam1A.1 aminoacylation ribozyme variant] please. 0.477

Report self-aminoacylation for ACUACCCUUGUCAUCGAGUGA [Fam2.1 aminoacylation ribozyme variant] please. 6.34

Report self-aminoacylation for CCACACUUCAAGCAAUCAGUA [Fam1B.1 aminoacylation ribozyme variant] please. 0.899

Report self-aminoacylation for UCUCACUUCAAGCAAUCGGUC [Fam1B.1 aminoacylation ribozyme variant] please. 1.71
